Biological target: Aa4CL_1 (Anthoceros agrestis)
Sequence (A0A6M6A6J9 entry or part of it): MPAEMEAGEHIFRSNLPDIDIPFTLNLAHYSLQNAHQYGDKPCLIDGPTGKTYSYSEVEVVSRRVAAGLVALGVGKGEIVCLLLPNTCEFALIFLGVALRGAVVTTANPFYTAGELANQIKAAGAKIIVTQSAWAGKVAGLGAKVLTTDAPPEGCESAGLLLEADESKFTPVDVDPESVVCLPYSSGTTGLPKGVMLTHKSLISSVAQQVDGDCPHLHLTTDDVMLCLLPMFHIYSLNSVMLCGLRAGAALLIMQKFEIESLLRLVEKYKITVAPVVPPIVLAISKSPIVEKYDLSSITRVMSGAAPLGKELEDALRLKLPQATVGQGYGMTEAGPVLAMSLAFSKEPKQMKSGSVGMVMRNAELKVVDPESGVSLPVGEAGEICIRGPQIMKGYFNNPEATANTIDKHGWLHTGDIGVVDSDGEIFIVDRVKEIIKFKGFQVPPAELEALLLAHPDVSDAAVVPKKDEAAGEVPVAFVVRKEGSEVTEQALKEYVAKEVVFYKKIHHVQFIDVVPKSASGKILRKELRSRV
Test: spectrophotometric CoA-ester formation, Michaelis-Menten
Format: biochemical
Details: pH 7.0 potassium phosphate, 40 °C, standard assay […] ATP, […] MgCl2, 500 µM CoA, 1 mM DTT
readoutLabel: Km (µM)
# output: bare number, implied unit µM

O=C(O)/C=C/c1ccccc1 [cinnamic acid]
218
O=C(O)/C=C/c1ccc(O)cc1 [4-coumaric acid]
12.8
COc1cc(/C=C/C(=O)O)ccc1O [ferulic acid]
61.4

Shift focus to the following entry.
Form field: reported Km of COc1ccc(/C=C/C(=O)O)cc1O [isoferulic acid]
9.9

The origin of these recorded values is paper PMC7419483.
